System: P31-FUJ (Acute Myeloid Leukemia)
Assay: Bliss excess, mean over the matrix (fraction); higher = more synergy;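 note: after 72 h of two-drug dosing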
Use 0.02 as the dividing line for Bliss excess, with the line itself on the Satisfied side and lower values as Not satisfied.

- Compound: "CC(=O)c1c(C)c2cnc(Nc3ccc(N4CCNCC4)cn3)nc2n(C2CCCC2)c1=O [Palbociclib] + Cn1cnc2c(F)c(Nc3ccc(Br)cc3Cl)c(C(=O)NOCCO)cc21 [Selumetinib] (first compound max 10 µM, 7x7, partner max 10 µM)"
  Category: "Not satisfied"
- Compound: "CN(CCO)CC[C@H](CSc1ccccc1)Nc1ccc(S(=O)(=O)NC(=O)c2ccc(N3CCC([C@@H](O)c4ccccc4-c4ccc(Cl)cc4)CC3)cc2)cc1S(=O)(=O)C(F)(F)F [AZD4320] + C=CCn1c(=O)c2cnc(Nc3ccc(N4CCN(C)CC4)cc3)nc2n1-c1cccc(C(C)(C)O)n1 [AZD1775] (first compound max 1 µM, partner max 1 µM)"
  Category: "Satisfied"
- Compound: "Cc1c2c(nn1C)CSCc1cc(n(C)n1)CSc1cc(c3ccccc3c1)OCCCc1c(C(=O)O)n(C)c3c-2c(Cl)ccc13 [AZD5991] + Nc1ccn([C@@H]2O[C@H](CO)[C@@H](O)C2(F)F)c(=O)n1 [Gemcitabine] (first compound max 1 µM, 7x7, partner max 0.3 µM)"
  Category: "Not satisfied"
- Compound: "COc1cc2c(cc1OCCCCCOc1cc3c(cc1OC)C(=O)N1C=C(C)C[C@H]1C=N3)N=C[C@@H]1CC(C)=CN1C2=O [SG3199] + O=C(c1cc(Cc2n[nH]c(=O)c3ccccc23)ccc1F)N1CCN(C(=O)C2CC2)CC1 [Olaparib] (first compound max 0.001 µM, 7x7, partner max 10 µM)"
  Category: "Not satisfied"
- Compound: "O=C(c1cc(Cc2n[nH]c(=O)c3ccccc23)ccc1F)N1CCN(C(=O)C2CC2)CC1 [Olaparib] + Cc1c2c(nn1C)CSCc1cc(n(C)n1)CSc1cc(c3ccccc3c1)OCCCc1c(C(=O)O)n(C)c3c-2c(Cl)ccc13 [AZD5991] (first compound max 10 µM, 7x7, partner max 1 µM)"
  Category: "Not satisfied"
- Compound: "CN(CCO)CC[C@H](CSc1ccccc1)Nc1ccc(S(=O)(=O)NC(=O)c2ccc(N3CCC([C@@H](O)c4ccccc4-c4ccc(Cl)cc4)CC3)cc2)cc1S(=O)(=O)C(F)(F)F [AZD4320] + C[C@@H]1COCCN1C2=NC(=NC(=C2)C3(CC3)[S@](=N)(=O)C)C4=C5C=CNC5=NC=C4 [AZD6738] (first compound max 1 µM, 7x7, partner max 10 µM)"
  Category: "Not satisfied"

====

Test system: HLE (Hepatocellular Carcinoma)
Test: Bliss excess, mean over the matrix (fraction); higher = more synergy
Readout type: Bliss excess

- Compound: "COc1nnc2ccc(N3CCC(c4ccc(OCCN5CCN(C)C(=O)[C@H]5C)cc4)CC3)nn12 [AZD5153] + Cn1cnc2c(F)c(Nc3ccc(Br)cc3Cl)c(C(=O)NOCCO)cc21 [Selumetinib] (first compound max 1 µM, 7x7, partner max 10 µM)"
  Observed: 0.0073
- Compound: "O=C(c1cc(Cc2n[nH]c(=O)c3ccccc23)ccc1F)N1CCN(C(=O)C2CC2)CC1 [Olaparib] + CN(CC[C@H](CSC1=CC=CC=C1)NC2=C(C=C(C=C2)S(=O)(=O)NC(=O)C3=CC=C(C=C3)N4CCC(CC4)[C@H](C5=CC=CC=C5C6=CC=C(C=C6)Cl)O)S(=O)(=O)C(F)(F)F)CCO [AZD4320] (first compound max 10 µM, 7x7, partner max 1 µM)"
  Observed: -0.0213
